I'd appreciate it if you could supply pKi values for the items below.
target_system: UniProt Q9NWZ3
Sequence (Q9NWZ3 whole entry): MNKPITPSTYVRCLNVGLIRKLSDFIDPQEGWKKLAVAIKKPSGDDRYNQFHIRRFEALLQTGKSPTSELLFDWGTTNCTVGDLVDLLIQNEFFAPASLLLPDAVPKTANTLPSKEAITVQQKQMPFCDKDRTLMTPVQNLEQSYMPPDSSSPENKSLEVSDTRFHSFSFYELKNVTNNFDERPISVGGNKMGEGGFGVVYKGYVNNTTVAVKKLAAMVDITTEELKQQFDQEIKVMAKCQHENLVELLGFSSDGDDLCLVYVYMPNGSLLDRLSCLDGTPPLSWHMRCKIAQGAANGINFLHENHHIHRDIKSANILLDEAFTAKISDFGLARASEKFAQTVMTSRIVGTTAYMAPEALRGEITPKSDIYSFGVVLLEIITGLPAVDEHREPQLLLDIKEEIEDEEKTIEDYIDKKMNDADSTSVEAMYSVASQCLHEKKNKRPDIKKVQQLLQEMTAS
method_notes: Inhibition of human recombinant full length His6-tagged IRAK4 expressed in baculovirus expression system using H-KKARFSRFAGSSPSQSSMVAR as substrate incubated for 90 mins by fluorescence polarisation assay
Answers are plain numbers, as −log10 of the molar value.

CC(C)(O)[C@]1(C)Cc2cc(NC(=O)c3cnn4cccnc34)c(N3CCOCC3)cc2O1; 8.14
O=C(Nc1cc2sc(N3CCOCC3)nc2cc1N1CCOCC1)c1cnn2cccnc12; 9.10
O=C(Nc1cc2sc(N3CCOCC3)nc2cc1N1CCC(CO)CC1)c1cnn2cccnc12; 9.30
CC1(C)Cc2cc(NC(=O)c3cnn4cc(C(F)F)cnc34)c(N3CCOCC3)cc2O1; 7.51
O=C(Nc1cc2cccnc2cc1N1CCC(CO)CC1)c1cnn2cccnc12; 8.77
O=C(Nc1cc2oc(N3CCOCC3)nc2cc1N1CCC(CO)CC1)c1cnn2cccnc12; 8.92
COc1cc2ncccc2cc1NC(=O)c1cnn2cccnc12; 7.28
CN(C)c1nc2cc(N3CCC(CO)CC3)c(NC(=O)c3cnn4cccnc34)cc2s1; 9.30

Provide the reported pKi of each entry below, same order.
1. CN(C)c1ccc2cc(NC(=O)c3cnn4cccnc34)c(N3CCCCC3)cc2n1
2. O=C(Nc1cc2[nH]cnc2cc1N1CCC(CO)CC1)c1cnn2cccnc12
3. O=C(Nc1cc2[nH]c(N3CCOCC3)nc2cc1N1CCC(CO)CC1)c1cnn2cccnc12
4. CC1(C)Cc2cc(NC(=O)c3cnn4cc(C#N)cnc34)c(N3CCOCC3)cc2O1
5. CNC(=O)CN1CCN(c2cc3c(cc2NC(=O)c2cnn4cccnc24)CC(C)(C)O3)CC1
6. NCC1CCN(c2cc3ncccc3cc2NC(=O)c2cnn3cccnc23)CC1
7. Cn1c(N2CCOCC2)nc2cc(N3CCC(CO)CC3)c(NC(=O)c3cnn4cccnc34)cc21
8. O=C(Nc1cc2ccc(N3CCOCC3)nc2cc1N1CCCCC1)c1cnn2cccnc12

Return:
1: 7.59; 2: 8.17; 3: 8.77; 4: 8.21; 5: 8.46; 6: 8.70; 7: 8.74; 8: 6.54

Provide the reported pKi of each entry below, same order.
1. CC1(C)Cc2cc(NC(=O)c3cnn4cccnc34)c(N3CCN(CC(N)=O)CC3)cc2O1
2. CN1CCC2(CC1)Cc1cc(NC(=O)c3cnn4cccnc34)c(N3CCOCC3)cc1O2

Return:
1: 8.68; 2: 8.13

Enquiry: Hello, I am looking for reported pKi with UniProt Q9NWZ3 for O=C(Nc1cc2cnc(N3CCOCC3)nc2cc1N1CCCCC1)c1cnn2cccnc12 . Could you help?
Return: 6.77
